Test target: ICAM-1 expressed on cells (JY cells; stimulated endothelial cells) (UniProt P05362 28-532, limits assumed)
Sequence (P05362 28-532 limits assumed): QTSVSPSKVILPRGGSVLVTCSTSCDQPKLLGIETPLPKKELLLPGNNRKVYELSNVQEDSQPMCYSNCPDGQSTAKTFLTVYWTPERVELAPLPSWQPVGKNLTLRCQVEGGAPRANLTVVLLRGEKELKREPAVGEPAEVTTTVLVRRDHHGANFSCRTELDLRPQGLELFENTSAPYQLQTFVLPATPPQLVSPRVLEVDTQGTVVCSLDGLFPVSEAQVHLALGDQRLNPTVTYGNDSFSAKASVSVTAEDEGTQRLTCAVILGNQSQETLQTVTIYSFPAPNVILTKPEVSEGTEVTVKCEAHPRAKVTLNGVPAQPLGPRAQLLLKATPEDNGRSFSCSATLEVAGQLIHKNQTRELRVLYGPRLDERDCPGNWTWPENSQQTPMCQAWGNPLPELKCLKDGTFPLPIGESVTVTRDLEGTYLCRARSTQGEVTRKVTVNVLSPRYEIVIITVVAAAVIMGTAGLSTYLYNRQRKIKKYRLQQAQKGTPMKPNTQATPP
Measurement protocol: cell-based or functional assay
Bridge positions count the residues as written; N and C are the ends. Ends that are not written are not given here.
In plain terms, low Percent Inhibition, meaning strictly below 40 percent, gives T, and everything else gives F.

Solved cases below.
CLIRMRSAC (disulfide 1-9) [CLIRMRSAC (SEQ ID NO: 44), cyclic disulfide-linked peptide] ... F
CLLRMKSAC (disulfide 1-9) [CLLRMKSAC (SEQ ID NO: 46), cyclic disulfide-linked peptide] ... F
CILRMRSAC (disulfide 1-9) [CILRMRSAC (SEQ ID NO: 43), cyclic disulfide-linked peptide] ... F

Data request: Please check: Percent Inhibition for CLRLSRIMC (disulfide 1-9) [randomized cyclic peptide CLRLSRIMC (SEQ ID NO: 56)] , strictly under 40 percent or not?
Data returned: T

Data request: Please check: Percent Inhibition for CLLRMRSLC (disulfide 1-9) [CLLRMRSLC (SEQ ID NO: 47), cyclic disulfide-linked peptide] , strictly under 40 percent or not?
Data returned: T
